Test system: XIP peptide (Xip251-270) binding
Assay overview: XIP fragment 251-270 binding compounds – biochemical, small-molecule microarray, fluorescence 635/667 nm, 0.1 µg/mL protein, primary screen (AID 1182)
Conditions: fluorescent protein binding, 635 nm, higher = more signal, called active from +8 up or from −8 down
Entries are sorted into classes by composite z-score as follows: lower level: < 0.1; middle level: ≥ 0.1 and < 0.5; upper level: ≥ 0.5

The examples below pair each entry with its known result.
Compound	Measurement target	Discrete label
CCCNC(=O)[C@@]1(c2ccc([N+](=O)[O-])cc2)CC(=O)N(C(C)C)[C@@H]1c1ccc(CO)cc1	XIP peptide (Xip251-270) binding	upper level
CCOc1cc(C(O)C2C=CC3C(=O)N(c4ccccc4)C(=O)C3N2Nc2ccccc2F)ccc1O (stereo unspecified)	XIP peptide (Xip251-270) binding	upper level
CC(C)NC(=O)[C@@H]1c2ccccc2C(=O)N(Cc2ccc(OC(F)(F)F)cc2)[C@H]1c1ccc(CO)cc1	XIP peptide (Xip251-270) binding	lower level
O=C1C[C@]2(c3ccc([N+](=O)[O-])cc3)C(=O)N(C3CC3)c3cc(CO)ccc3[C@H]2N1C1CCCCC1	XIP peptide (Xip251-270) binding	lower level
C#CCN1[C@@H](Cc2ccccc2)C(=O)O[C@H](Cc2ccccc2)[C@@H]1/C=C/C1CC1	XIP peptide (Xip251-270) binding	lower level
CC(C)NC(=O)[C@@H]1c2ccccc2C(=O)N(Cc2ccccc2C(F)(F)F)[C@H]1c1ccc(CO)cc1	XIP peptide (Xip251-270) binding	middle level
CCOC(=O)c1cn(C[C@H](Cc2ccccc2)NC(=O)N[C@H](CO)CCc2oc(C(C)=O)c(C(=O)OC)c2C(=O)OC)nn1	XIP peptide (Xip251-270) binding	upper level
CCCC=C(CCC)[C@@H](NC(=O)OCC(C)C)c1ccc(C(=O)OC)cc1	XIP peptide (Xip251-270) binding	middle level
CCCCCCc1nc(-c2ccc(-c3ccc(Cl)c(Cl)c3)o2)cc2c1[Si](C(C)C)(C(C)C)OC2	XIP peptide (Xip251-270) binding	middle level
C=C(CCCC)/C(=C/C[C@@H](OC(C)=O)c1ccc(CO)o1)c1cnc2ccccc2c1	XIP peptide (Xip251-270) binding	upper level

Which category fits this record: C=C(COC)/C(=C/C[C@H](OC(C)=O)c1ccccc1OCCO)c1cc(C(=O)OC)ccc1OC
middle level

Which category fits this record: CN(C)CCCCNC(=O)[C@H]1C[C@H]2C(=O)NCC(=O)N2[C@H]1c1ccc(O)cc1
middle level

Which category fits this record: COCCOC(=O)N1C(=O)[C@@]2(c3cc(C#CCC(C(=O)OC)C(=O)OC)ccc31)[C@H](C(N)=O)[C@H]1C(=O)O[C@H](c3ccccc3)[C@H](c3ccccc3)N1[C@@H]2c1ccc(O)cc1
upper level

Which category fits this record: CN1C(=O)C2C(C3CC3)C=C3CN(Cc4cccc(Cl)c4)[C@@H]([C@@H](O)Cc4ccccc4)C3C2C1=O (stereo partly specified)
middle level

Which category fits this record: O=C1[C@@H]2[C@@H](CC(COc3ccccc3)=C([C@H](O)CCc3ccccc3)[C@@H]2CO)C(=O)N1Cc1ccccc1
lower level
